- Test system: SF-268 CNS
- ASSAY_OVERVIEW: NCI tumour cell line growth inhibition, 48 h
READOUT_KIND: GI50

- SMILES_NOTATION: "Oc1ccc(C(c2ccc(O)cc2)c2ccc(Cl)cn2)cc1"
  VALUE_REPORTED: "25.9 µM"
- SMILES_NOTATION: "O=C(Nc1ccc(F)cc1)c1ccc(NC2=C(Cl)C(=O)N(Cc3ccccc3)C2=O)cc1"
  VALUE_REPORTED: "4.4 µM"
- SMILES_NOTATION: "Cc1cc(/C=C\\c2ccc3ccccc3[n+]2C)c(O)c2ncccc12"
  VALUE_REPORTED: "0.486 µM"
- SMILES_NOTATION: "C=CCN(/C=C1/C(=O)O[C@H](COC)[C@@]2(C)C1=C(O)C(=O)C1=C2[C@H](OC(C)=O)C[C@]2(C)C(=O)CC[C@@H]12)CC=C"
  VALUE_REPORTED: "1.71 µM"

Now look at this entry.
The molecule listed as "O=C1C(c2c[nH]c3ccccc23)=C(c2c[nH]c3ccccc23)C(=O)N1O" has a reported GI50 of > 25 µM

Each recorded value in this set is attributed to PubChem BioAssay (NCI).
